Values from PubChem BioAssay

test_description: MELAS cybrid and Rieske KO viability enhancers – cell-based, MELAS cybrids, Rieske KO mouse fibroblasts, CellTiter-Glo, primary screen (AID 1508586);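 further: z relative to plate mean and SD of compound and empty wells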
stated_conditions: MELAS cybrid survival, low glucose, CellTiter-Glo 48 h
The source made the active and inactive calls.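 How the source made its calls: active means mean z-score across replicates of 1.96 or higher in either the MELAS or the Rieske mutant cell line; inactive means the rest.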
Hi there, use one of these labels in your reply, thanks! active, inactive

See these solved cases before continuing.
- compound: "CC(C)n1ncc(NC(=O)Cn2ccc(-c3ccc(C(F)(F)F)cc3)n2)n1"
  group_label: "inactive"
- compound: "Cc1ccc(S(=O)(=O)n2c(N)nc3ccccc32)cc1"
  group_label: "inactive"
- compound: "CC1=C(C(=O)O)N2C(=O)C(NC(=O)C(N)c3ccccc3)[C@@H]2SC1 (stereo partly specified)"
  group_label: "inactive"
- compound: "CCNC(=O)c1[nH]nc(-c2cc(Cl)c(O)cc2O)c1-c1ccc(OC)cc1"
  group_label: "active"
- compound: "C=C1CCC(O)CC1=CC=C1CCC[C@@]2(C)[C@H]1CC[C@H]2C(C)CCCC(C)(C)O (stereo partly specified)"
  group_label: "inactive"

**Query** // return assay outcome for O=[N+]([O-])c1ccc2[nH]ncc2c1
**Result** inactive

**Query** Returns: the outcome recorded for CCn1nccc1NC(=O)Cn1cc(-c2ccc(C(=O)N3CCCC3)cn2)cn1 in this assay.
**Result** inactive

**Query** Kindly provide the recorded test outcome for the following compound: O=c1c2nccnc2ncn1Cc1ccc2nsnc2c1
**Result** inactive

**Query** For this compound, state the assay outcome: CC(C)c1cc(-c2ccc(F)c3ccccc23)nc(N)n1
**Result** inactive

**Query** Recorded test call requested for O=S(=O)(O)CCCN1CCOCC1
**Result** inactive

**Query** Outcome? Cc1cc(C)c(Nc2ccnc(Nc3ccc(C#N)cc3)n2)c(C)c1
**Result** inactive

----------
test_description: compounds altering circadian rhythm period length – cell-based, LOPAC library, luminescence reporter (AID 2774);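 further: values are relative to mean of DMSO wells on each plate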
stated_conditions: circadian reporter cells, at 7 µM, actives lie on both sides
Calls of active or inactive are those of the source. The rule behind the calls is not given here.
endpoint_name: period change

- compound: "O=C(c1cc(O)c(O)c([N+](=O)[O-])c1)c1ccccc1F"
  result: "0.055 h (inactive)"
- compound: "O=C(O)[C@@H]1C[C@@H](C(=O)O)N1"
  result: "-0.1 h (inactive)"
- compound: "Cc1cn([C@H]2C[C@@H](N=[N+]=[N-])[C@@H](CO)O2)c(=O)[nH]c1=O"
  result: "0.06 h (inactive)"
- compound: "NC1(C(=O)O)CCc2cc(C(=O)O)ccc21 (configuration not stated)"
  result: "0.185 h (inactive)"
- compound: "CCCn1c(=O)c2[nH]c(-c3ccc(OCC(=O)NCCN)cc3)nc2n(CCC)c1=O"
  result: "-0.09 h (inactive)"

**Query** // lookup period change for CC[C@@H]1Cc2cc(O)ccc2C2=C1c1ccc(O)cc1C[C@H]2CC
**Result** -0.02 h (inactive)

**Query** Form field: reported period change of C[N+](C)(C)CCC(=O)c1cccc2ccccc12
**Result** -0.475 h (inactive)

**Query** Look at this compound and give its reported period change. CC(C)CN(C)c1nc(N)c(C(=O)N=C(N)N)nc1Cl
**Result** 0 h (inactive)

**Query** I have this compound here, Nn1nnc2ccccc21 , and I need its recorded period change.
**Result** -0.155 h (inactive)

**Query** For the compound shown here, NCCNC(=O)c1ncsc1-c1cccc(F)c1 , give the reported period change.
**Result** 0.08 h (inactive)

**Query** If you can, please state the reported period change value of N#C/C(=C\c1ccc(O)c(O)c1)C(=O)NCCCNC(=O)/C(C#N)=C/c1ccc(O)c(O)c1 .
**Result** -0.285 h (inactive)

**Query** Which measured period change value corresponds to Nc1cc(Cl)c(NC2=NCCN2)c(Cl)c1 ?
**Result** 0.07 h (inactive)

----------
test_description: growth inhibition, single agents and combos, LFS_MB_1R, cell-based, cisplatin or BGB combos, synergistic combos for chromothripsis tumors (AID 1671452);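 further: cells exposed for 96 hours before readout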
stated_conditions: LFS_MB_1R medulloblastoma cells, measured here: combination with cisplatin, at 0.5 µM, stronger effect = higher value
endpoint_name: inhibition (%)
The reply should be a number in %, with the unit left off.

- compound: "O=c1[nH]c(=O)n(C2CC(O)C(CO)O2)cc1I (stereo not given)"
  inhibition (%): -105

**Query** Look at this compound and give its reported inhibition. C[C@@H]1COCCN1c1cc(C2(S(C)(=O)=O)CC2)nc(-c2cccc3[nH]ccc23)n1
**Result** 20.8

**Query** Return reported inhibition; argument: O=C(O)c1cc2cccc([N+](=O)[O-])c2[nH]1
**Result** -18.7

**Query** What does the record list as inhibition for Nc1ccn(C2CCC(CO)O2)c(=O)n1 (stereo not given) ?
**Result** -19.1

**Query** Name the recorded inhibition for CC(C)OC(=O)[C@H](C)NP(=O)(OC[C@H]1O[C@@H](n2ccc(=O)[nH]c2=O)C(C)(F)[C@@H]1O)Oc1ccccc1 (stereo not given in full) .
**Result** -43

----------
In this section, each of the compounds is paired with its reported inhibition.
test_description: growth inhibition, single agents and combos, HTB85, cell-based, BGB or cisplatin IC20 combos, synergistic combos for chromothripsis tumors (AID 1671453);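 further: cells exposed for 96 hours before readout; 0% = vehicle DMSO and 100% = high DMSO killing control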
stated_conditions: HTB85 osteosarcoma cells, drug combinations, at 0.5 µM, stronger effect = higher value
Answer format: numeric, % implied, no suffix.

Examples from the recorded data:
- compound: "CC(=O)C1(O)Cc2c(O)c3c(c(O)c2C(OC2CC(N)C(O)C(C)O2)C1)C(=O)c1ccccc1C3=O (stereo not drawn)"
  inhibition [%]: 99.6
- compound: "NC(=O)c1cccc2cn(-c3ccc(C4CCCNC4)cc3)nc12 (stereo not drawn)"
  inhibition [%]: -22
- compound: "Cc1c(Br)cc(NCC(=O)N/N=C/c2cc([N+](=O)[O-])ccc2O)cc1Br"
  inhibition [%]: -6.09
- compound: "COc1cccc2c1C(=O)c1c(O)c3c(c(O)c1C2=O)CC(O)(C(C)=O)CC3OC1CC(N)C(O)C(C)O1 (stereo not drawn)"
  inhibition [%]: 99.2

**Query** I am curious: what inhibition value has been reported for NC(=O)c1cccc2[nH]c(-c3ccc(C4CCCN4)cc3F)nc12 (stereo not drawn) ?
**Result** 6.65

**Query** Given the entry CC(C=CC(=O)NO)=CC(C)C(=O)c1ccc(N(C)C)cc1 (stereo not drawn) , report its measured inhibition.
**Result** 98.7

**Query** Any idea what inhibition was measured for CN(C)C(=S)NN=C(c1ccccn1)c1ccccn1 ?
**Result** 89.9

**Query** Requested read-out: inhibition. Entry: Cc1cc(C)c(Nc2ccnc(Nc3ccc(C#N)cc3)n2)c(C)c1
**Result** -1.97

**Query** Item C=C(C)C1CCC2(C(=O)O)CCC3(C)C(CCC4C5(C)CCC(O)C(C)(C)C5CCC43C)C12 (stereo not drawn) has what recorded inhibition?
**Result** -2.9

**Query** Requested read-out: inhibition. Entry: O=c1ccn(C2CC(O)C(CO)O2)c(=O)[nH]1 (stereo not drawn)
**Result** -20.1

----------
test_description: galactose survival enhancers in mitochondrial complex I cybrids – cell-based, galactose medium, ATP luminescence, primary screen (AID 1645843);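 further: positive z means more ATP and so rescue of galactose-driven cybrid death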
stated_conditions: complex I mutant cybrid cells, 72 h, stronger effect = higher value
endpoint_name: z-score
Please reply with the value in numeric form only.

- compound: "Cc1ccc(Cl)cc1NC(=O)N[C@H]1C[C@H]2C(=O)N[C@H](C(C)C)C(=O)N2C1"
  z-score: -0.745
- compound: "Nc1ccn(C2CCC(CO)O2)c(=O)n1 (centres undefined)"
  z-score: 0.445
- compound: "OCCCCCNc1nccc(-c2cnn(-c3ccccc3F)c2)n1"
  z-score: -0.905
- compound: "Cn1nccc1NC(=O)Cn1ccc(-c2cnn(-c3ccccc3F)c2)n1"
  z-score: -0.815
- compound: "O=c1[nH]c2cc(Cl)ccc2c(O)c1-c1ccc(Oc2ccccc2)cc1"
  z-score: 0.965

**Query** z-score lookup needed for Cc1ccccc1C1CCCN(C(=O)CCC(C)C)C1 (centres undefined) , thanks.
**Result** -0.255

**Query** Query (compound): CC(C)c1cc(C(=O)N2CCCC(c3ccccc3)C2)on1 (centres undefined) ; field requested: z-score
**Result** -0.55

**Query** Give the measured z-score of Cc1nc(N=Nc2cc(S(=O)(=O)O)c3cc([N+](=O)[O-])cc(S(=O)(=O)O)c3c2)c(COP(=O)(O)O)c(C=O)c1O .
**Result** 1.9

**Query** Quick one: z-score of NCC1OC(OC2C(CO)OC(OC3C(O)C(N)CC(N)C3OC3OC(CO)C(O)C(O)C3N)C2O)C(N)C(O)C1O (centres undefined) ?
**Result** 0.725

**Query** I'd like to know its z-score. The compound in question is O=c1cc(-c2cccnc2)nc(-c2ccc(CN3CCCC(CO)C3)cc2)[nH]1 (centres undefined)
**Result** -0.56

**Query** Request the reported z-score associated with CCC(C)(C)NCc1c(C)cc(C)c(CO)c1C
**Result** -0.525

**Query** Any idea what its z-score is? The compound is c1ccc(CC2CCN(C3CCSC3)CC2)cc1 (centres undefined)
**Result** -0.3

**Query** Form field: reported z-score of CC(=O)NCCC1CCN(C(=O)C(C)Oc2cc(C)c(Cl)c(C)c2)CC1 (centres undefined)
**Result** -0.5

**Query** Record request: z-score value, item CCOC(=O)c1ccc(N2CCN(CC(C)C)C(=O)C2C)nc1 (centres undefined)
**Result** -0.53

**Query** Tell me the measured z-score of CCCOC1CCCN(C2CCN(c3ccc(F)c(F)c3)CC2)C1 (centres undefined) , please.
**Result** -0.725

**Query** Fill in the blank: the reported z-score of CN1CCN(Cc2cccc3cccnc23)CC1CCO (centres undefined) is ____.
**Result** -0.585

**Query** Which z-score value is on record for COc1ccc(-c2oc3c(CC=C(C)C)c(OC4OC(CO)C(O)C(O)C4O)cc(O)c3c(=O)c2OC2OC(C)C(O)C(O)C2O)cc1 (centres undefined) ?
**Result** 0.865

**Query** Quick check: z-score of C=CCNC(=O)c1cccnc1-c1ccc(OC)c2ncccc12 ?
**Result** -0.545

**Query** // returns reported z-score for input COc1ccccc1CNCCCCCCNCCCCCCCCNCCCCCCNCc1ccccc1OC
**Result** -1.19

**Query** // returns reported z-score for input CC[C@@H](C)[C@H]1O[C@]2(CC[C@@H]1C)C[C@@H]1C[C@@H](C/C=C(\C)[C@@H](O[C@H]3C[C@H](OC)[C@@H](O[C@H]4C[C@H](OC)[C@@H](O)[C@H](C)O4)[C@H](C)O3)[C@@H](C)/C=C/C=C3\CO[C@@H]4[C@H](O)C(C)=C[C@@H](C(=O)O1)[C@]34O)O2
**Result** -1.29

**Query** Which value of z-score has been reported for CN(CCCOc1ccc(Cc2ccccc2)cc1)CCC(=O)O in the records?
**Result** 0.275

**Query** Entry under review: CCCC(CCC)C(=O)N1CCC(n2cc(C3CC3)nn2)CC1 . Reported z-score?
**Result** -0.125

**Query** Return reported z-score; argument: Cc1nc(NC(=O)NCc2cccc(Cl)c2)nn1C
**Result** -0.605

**Query** Need z-score of Nc1nc(Cl)nc2c1ncn2C1CC(O)C(CO)O1 (centres undefined) , thanks.
**Result** -1.71

**Query** Which value of z-score has been reported for Nc1nc(Nc2cccc(Cl)c2)sc1C(=O)c1ccc(F)cc1 in the records?
**Result** -2.28

**Query** Record request: z-score value, item O=C(O)Cc1c[nH]c2ccc(O)cc12
**Result** 0.08

**Query** Requested read-out: z-score. Entry: C[N+](C)(C)[C@@H](Cc1c[nH]c(=S)[nH]1)C(=O)[O-]
**Result** 0.805
